- Tested on: MS2 coat protein
- procedure.summary: apparent KD of MS2 coat protein; designed switch direction (-1 OFF switch, 1 ON switch): 1; higher = weaker reporter binding
- assay.setup: input ligand: FMN 200 uM
Entries annotated with measured apparent KD of MS2 coat protein
endpoint: apparent KD of MS2 coat protein (nM)

INSERT INTO measurements (query_sequence, observed_result) VALUES
  ('GUAGCAUACCGAGGAUAUUCAUAUACAUGAGGAUCACCCAUGUUUAUAUAGGCCAAAAGGCCUUGGGAGAAGGCGGAAUGCUAC [Xeonanis - 20 Mod10] (Eterna round: R96, puzzle: Same State NG 2)', 12.1),
  ('GGUCCAUCAUGAGGAUAUGGCACCUUAUUGGUGCCAGAAGGCAUGUCUAUAGACAUGAGGAUCACCCAUGUAAUAAAUUGGACC [Eli NG1ss - 93] (Eterna round: R96, puzzle: Same State NG 1)', 30.2),
  ('CCGUAAUAUGGAGGAUAUGGAGCCUUAUUGGCUCCAGAAGGUCAAAACACAUGAGGAUCACCCAUGUCGGCGGUCAAUAGACCG [Eli NG1ss - 75] (Eterna round: R96, puzzle: Same State NG 1)', 31.4),
  ('ACAUGAGAGCGAGGAUAUAUUGUACCUACAUGUGACAUGAGGAUCACCCAUGUGGUAAGUAUGACAUAGAAGGCGCAGAUAUGU [Equivalance 91 - Jieux - Same State NG 2] (Eterna round: R96, puzzle: Same State NG 2)', 21.4);

====

- Test system: K4 kissing-loop RNA reporter;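 note: bound reporter read as fluorescence of individual clusters on recovered sequencing chips by microscopy, with normalized cluster intensities fitted with a binding model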
- procedure.summary: apparent KD of K4 kissing-loop reporter; higher = weaker reporter binding
- assay.setup: Eterna round: R107; input ligand: FMN 200 uM
Definition: the class of an entry is the range in group 1 (below 0.2 µM), group 2 (0.2 µM to below 0.3 µM), group 3 (0.3 µM or more) that contains its apparent KD of K4 kissing-loop reporter.

INSERT INTO assay_data (query_sequence, cat) VALUES
  ('AGCUCAGAGUGACUCGAUAAGAGUCACAAACGAGGACCGGUACGGCCGCCACUCGAAAUAAGGAGAGUGAUGUUCUCGCUGAGCA [FiskerMod 8 - Jieux - Same State Tryptophan A]', 'group 3'),
  ('AGGACGGUUAUGGAUACCAGUCCGGAACUUGUCCAUGGAGUGAUGUUCCGUCCAGCUCCGGACCCUUGGCAGCCAGACUGCUGAA [theeternabot_sameState_KL_Theo_B_41]', 'group 1'),
  ('AUUCGUCUCUGAGGAUAUCAGAGGAGAGUGAUGUUCUCCCAUAGCCCAGUGAUGUUGGAUGCUAUCUGAGAAGGCAGUGGGCGAA [Same State FMN B GF 14]', 'group 1'),
  ('AGAACUGUCUUGGAUACCAGUGAUGUUGGUAUCGAUGUGUGAGUGCAAAGCGUCCCACAUCGCCCUUGGCAGCUAAGACUGUUCA [Omei KL Theo B Exc A v4]', 'group 2'),
  ('UGUACCGAGUCAGGAUAUCAUAAUAAUCGAGUGAUGUUCGAAUAACGACUGACAAAGUCGGUCGAUUGAGAAGGGACUUGGUACU [FmnBS 7 #SwitchBubble #StaticStem]', 'group 1'),
  ('UUGAGCCUGACGUAAGUCAGGCUCUGCGAGCGAGGACCGGUACGGCCGCCACUCGGUGCAGUGAUGUUGCAUGGCCGCAAGGCCG [#2 Exclusion - Tryptophan A Attempt #15 (HarryS)]', 'group 2'),
  ('UGGAGUUGACGAAAAGUCAACUCCUGAGAUACCAGUGACGAAAGUCACCCUUGGCAGCUCACUGGCAGUGAUGUUGCGCGAUAAA [#23 K4 Theophylline A Same State]', 'group 3'),
  ('UGUUUUUACUGAAGGAGCGGCAAUUGAUACGUAGAUAUAGUGAUGUUAUAUAAGAUAGAGAGCCAGGUAGGUCGCAGAGUGUUUC [ExArgB.aA]', 'group 2'),
  ('GCCGUAGAUCGAAGGAGCGUGUCCAAACCUCAUUCAUGUACACACGAGUGAUGUUCGUGUACACAGGUAGGUCGCGAUCUACGGC [#04 K4 Arginine B Exclusion]', 'group 3'),
  ('CUUAUUUCUCGCUAUGAUGUUAGUUGAGCCAAGGAUAUUAAUGAAUUAAGAAGGUGGGUUUUUAAGUGAUGUUUUGAGACUGGCA [theeternabot_exclusion_KL_FMN_A_27]', 'group 3'),
  ('UGUAAGCGCGUAGAUACCAGCAGACGAGUGAUGUUCAAAAGAUUAAGGAAAAGAAAGUAAUGCCCUUGGCAGCUAAUCAUAAGCG [whbob_Ex_Theo_B_sa92]', 'group 2'),
  ('GGCACGGGCUCGGCCGCCACUCCCGCGGGUCGAAAGGUCCGCUACUGAGUGAUGUUCGGUUGGAGGAGGACCGGGAGCCCGUGCC [#2 Exclusion - Tryptophan B Attempt #23 (HarryS)]', 'group 1'),
  ('AGUGGACGUGUCUAGAGUGAUGUUCCGGAUACCAGACACGAAAGUGUCCCUUGGCAGCCGGAGUGAUGUUCUGGCGUUCACUAAA [Omei KL Theo A Exc B v6]', 'group 3'),
  ('UUUGGAGUGGGAGGAUAUCCUAAUAUGGGUGAUGUUAGCGAUGUUGAAGGUGUAGUGAUGUUAUGCGGAGAAGGCCCACUGUAGA [BDazzled - #19 - Exc. FMN B]', 'group 1'),
  ('UACCUGCUGUCAGGAUAUGAGUGCAGUGAUGUUGCACUCAACGUAACCAUCUUGAAAUGCAAACACUCAGAAGGGACGCGCGAAG [Onaninso]', 'group 1'),
  ('GCUAAGGAGUGAUGUUCCAAGUGAUGUUAACGAGGACCGGUACGGCCGCCACUCGAUACGGCCGGAAAGUAAGAUAAACUACAGC [Same State - Tryptophan A (Freestyle 5)]', 'group 1'),
  ('CAUAGGAAACUAUGUUCCUCUCUUACUGAAGGAGCGCGUGAAAACGCAGGUAGGUCGCAGGAUUUGAGAGUGAUGUUCUCAUUAA [Ex Arginine A K4 15]', 'group 1'),
  ('AACCACUCGUUACAUCACUAUCGAGUGGAACGAGGACCGGUACGGCCGCCACUCGAAUAGAUGCAGUGAUGUUGCAUCUUGGAAU [KL-SSTryp-A (BrourdMod)4 #dotplot2 strengthened]', 'group 1'),
  ('CCUAUCUCUUACGAUACCAGUCAAUGAUAUUUUAUCAAUGCCCUCACCGAGUGAUGUUCGGACCCUUGGCAGCGUCUGGGAUAGG [pvppimullin]', 'group 2'),
  ('AGCGUCUGAAGAGGAUAUGACCAGUGAUGUUGGUUACUACCUCAAAUUAGUGUCGCGCCAAAAUCGUCAGAAGGCUUCGGCGCGC [Ussoes]', 'group 1');

====

- Test system: MS2 coat protein
- procedure.summary: apparent KD of MS2 coat protein; designed switch direction (-1 OFF switch, 1 ON switch): -1; higher = weaker reporter binding
- assay.setup: input ligand: none
Entries annotated with measured apparent KD of MS2 coat protein
endpoint: apparent KD of MS2 coat protein

INSERT INTO measurements (query_sequence, observed_result) VALUES
  ('AGUCAGGCGGUAGGAUAUCCAAAUCGAGUGACCCUUUCAUAACAUGAGGAUCACCCAUGUCGGUGGGAGAAGGGCCGUACGGCG [JL ViennaUCT Atra mod 3] (Eterna round: R96, puzzle: Exclusion NG 2)', '104 nM'),
  ('AAUGAUUGACGAGGAUAUUGUGUUAGAUCACGACGAGAAGGCGUCUGUCACAUGAGGAUCACCCAUGUGAGCCUUGUGGAUAGA [Ex NG1 #77] (Eterna round: R96, puzzle: Exclusion NG 1)', '378 nM'),
  ('GUCAGCUCGUGAGGAUAUGAACAUGAGGAUCACCCAUGUAAGAUCAAGCUGCUUCGGCAGCAAGUUCAGAAGGCACGAGCUGAC [ENG2/10-A1] (Eterna round: R96, puzzle: Exclusion NG 2)', '134 nM');

====

- Test system: MS2 coat protein
- procedure.summary: apparent KD of MS2 coat protein; higher = weaker reporter binding
- assay.setup: Eterna round: R107; input ligand: arginine 13.2 mM
Entries annotated with measured apparent KD of MS2 coat protein
endpoint: apparent KD of MS2 coat protein (µM)

INSERT INTO measurements (query_sequence, endpoint, observed_result) VALUES
  ('CAGACUAGGGCGGCCGCCACUGUGGCUACGGUACAUGAGGAUCACCCAUGUUUGUGGUUGAUCUACAGGACCGGGCCCUGGCACG [Orbera]', 'apparent KD of MS2 coat protein', 0.00905),
  ('UGUACCUGUAUCUGGUCCAUAGUAUAACCUCGAGGACCGGUACGGCCGCCACUCGUCGGACCACAUGAGGAUCACCCAUGUACCG [theeternabot_exclusion_MS2_Trp_A_23]', 'apparent KD of MS2 coat protein', 0.0129),
  ('GCGAUGGAGCGAAGGAGCGGCUAUCACCGACAAAACAUGAGGAUCACCCAUGUUGGCAGUGGCCAGGUAGGUCGCGCUCCAUCGC [EAB NP+V+V2 #8]', 'apparent KD of MS2 coat protein', 0.00817),
  ('ACAUGAGGAUCACCCAUGUAACCUAGGGAAGGAGCGGUGUAAGAGCCAGGUAGGUCGCCCACAUGUGGAUCACCCAUGGUGAGGG [#24 Same State - Arginine A]', 'apparent KD of MS2 coat protein', 0.0227),
  ('AUCGUACCUGAGGAUACCAGCAUGUGAUCAUAACAUGAGGAUCACCCAUGUAAUCAGUGAUGCCCUUGGCAGCUUGGUCGAUACA [Same State - Theophylline B (Freestyle 9)]', 'apparent KD of MS2 coat protein', 0.0425),
  ('ACCUCAUAGGCGGCCGCCACUGUAAUGACUACGUCAAACAUGAGGAUCACCCAUGUAGUCAAUCACAGGACCGGGUCAUGGGUAG [Tryp B SS s2]', 'apparent KD of MS2 coat protein', 0.0277),
  ('ACACAUGAGGAUCACCCAUGUGCGCUGGAAGGAGCGCAGAAUCAUGCAGGUAGGUCGCCAGUGCCUUUUGAUAAAGGGAAAAGAA [Cezaquce]', 'apparent KD of MS2 coat protein', 0.0661),
  ('ACAUGAGGAUCACCCAUGUAAUCCUCUGAAGGAGCGAGAAAUAACUCAGGUAGGUCGCAGUUCAAAACAUGAGGAUCACCCAUGU [Exclusion Arginine A GF 9]', 'apparent KD of MS2 coat protein', 0.0289),
  ('ACAUGAGGAUCACCCAUGUGCCGUCUUGAUACCAGACGCGAAGUAGUCCCUUGGCAGCAAAUACGUGAGGGUCGCGCAUGUGUAA [wzxmullin]', 'apparent KD of MS2 coat protein', 0.0218),
  ('UCGGACAUGAGGAUCACCCAUGUAAAUCCUCGAGGACCGGUACGGCCGCCACUCGAACGAGUGGCACGCGAGUGCGCACUCGCGU [aEa]', 'apparent KD of MS2 coat protein', 0.0241),
  ('UGAAAGUAGGGAAGGAGCGCUACAACAUGAGGAUCACCCAUGUAAUGAGGAUCACCCAUGUGGCAGGUAGGUCGCCCAAAACAUG [#14 Same State - Arginine B]', 'apparent KD of MS2 coat protein', 0.085),
  ('AGGUGCAAAGCACCCUCUGGCCCUCGUGAAGGAGCGCUCGAAAGAGCAGGUAGGUCGCAUGAGGAUCACCCAUGUGAGCCAGAGA [Arg A Exc A v1]', 'apparent KD of MS2 coat protein', 0.0351);
